- System: T. b. rhodesiense STIB 900 bloodstream forms
- Test Summary: Anti-trypanosomal activity on T. brucei rhodesiense (Alamar blue)
- Assay type: cell-based, Trypanosoma brucei rhodesiense
- Experimental Parameters: 72 h; mean ± margin of deviation of two independent determinations; read-out: IC50 Values T. b. rhodesiense
Each entry below carries its reported IC50.
Quantity Kind: IC50 (µM)

INSERT INTO results (compound, quantity_kind, result) VALUES
  ('CC1=C2CCC3(C)OC2(OC1)C1C3CCC(C)(O)C2CCC1(C)O2 (centres unmarked)', 'IC50', 0.61),
  ('COC(=O)C(C)C1=CC=C(C)CCC2OC2(C)CCC=C(C)CC1 (centres unmarked)', 'IC50', 1),
  ('CC1=CCCC(C)(O)C=CC(C(C)C)CCC(C)=CCC1 (centres unmarked)', 'IC50', 1.14),
  ('C=C1CCC(C(C)C)C=CC(C)(O)CC=CC(C)(O)CCC1O (centres unmarked)', 'IC50', 0.65),
  ('C=C1CCC2(O)C(=C)COC2C=C(C)CCC(O)C2(C)CCC1O2 (centres unmarked)', 'IC50', 0.72);

----------
- Tested on: T. b. rhodesiense STIB 900 bloodstream forms
- Test Summary: Anti-trypanosomal activity on T. brucei rhodesiense (Alamar blue)
- Format: cell-based, Trypanosoma brucei rhodesiense
Quantity Kind: Activity against bloodstream forms of T. brucei (in words)

INSERT INTO assay_data (molecule, result) VALUES
  ('CC1=C2CCC3(C)OC2(OC1)C1C3CCC(C)(O)C2CCC1(C)O2 (stereo not shown)', 'showed activity'),
  ('C=C1CO[C@H]2/C=C(\C)CC[C@@H](O)[C@@](C)(O)C/C=C/[C@](C)(O)CC[C@@]12O', 'showed activity'),
  ('C=C1CCC2=C(C)C(=O)OC2C=C(C)CCC(O)C2(C)CCC1O2 (stereo not shown)', 'showed activity'),
  ('C=C(C)C1CC(=O)CC2OC(C)(CC2=O)CC2C=C(C(=O)O2)C(OC)C1 (stereo not drawn) [Compound 21, 13-Epi-scabrolide C]', 'showed activity'),
  ('COC(=O)C(C)C1=CC=C(C)CCC2OC2(C)CCC=C(C)CC1 (stereo not shown)', 'showed activity'),
  ('CC1=CCCC(C)(O)C=CC(C(C)C)CCC(C)=CCC1 (stereo not shown)', 'showed activity'),
  ('C=C1CCC(C(C)C)C=CC(C)(O)CC=CC(C)(O)CCC1O (stereo not shown)', 'showed activity'),
  ('C/C1=C\[C@@H]2O[C@@H](O)[C@@]3(C)O[C@@]23CC/C(C)=C/CC[C@](C)(O)[C@@H](O)CC1', 'showed activity'),
  ('C=C1CCC2(O)C(=C)COC2C=C(C)CCC(O)C2(C)CCC1O2 (stereo not shown)', 'showed activity'),
  ('C=C(C)C1CCC23OC2C(CC(C)(O)C=C2C=C(C(=O)OC)C(OC)(C1)O2)OC3=O (stereo not shown)', 'showed activity');
